Below are pIC50 values measured for PIK3CG (UniProt P48736).
Interpret pIC50 as the negative base-10 log of the concentration measured in mol/L.

So what's the measured pIC50 for this one? CC(=O)c1ccc(N2CCOCC2)cc1O
5.00

Now consider Cc1cccc(CNc2cc(C)cn3c(=O)cc(N4CCOCC4)nc23)c1 .
4.60

Now consider Cc1cc(Nc2cccc(C)c2C)c2nc(N3CCOCC3)cc(=O)n2c1 .
4.00

Now consider Cc1ccccc1Oc1cccc2c(=O)cc(N3CCOCC3)[nH]c12 .
4.00

----------
Below are log10 IC50 values measured for PIK3CB (UniProt P42338).
// stored as log10 of IC50 expressed in nM

Look up log10 IC50 with PIK3CB (UniProt P42338) for this compound: O=C(c1ccccc1)c1ccc(N2CCOCC2)cc1O
Sequence (P42338 whole entry, looked up): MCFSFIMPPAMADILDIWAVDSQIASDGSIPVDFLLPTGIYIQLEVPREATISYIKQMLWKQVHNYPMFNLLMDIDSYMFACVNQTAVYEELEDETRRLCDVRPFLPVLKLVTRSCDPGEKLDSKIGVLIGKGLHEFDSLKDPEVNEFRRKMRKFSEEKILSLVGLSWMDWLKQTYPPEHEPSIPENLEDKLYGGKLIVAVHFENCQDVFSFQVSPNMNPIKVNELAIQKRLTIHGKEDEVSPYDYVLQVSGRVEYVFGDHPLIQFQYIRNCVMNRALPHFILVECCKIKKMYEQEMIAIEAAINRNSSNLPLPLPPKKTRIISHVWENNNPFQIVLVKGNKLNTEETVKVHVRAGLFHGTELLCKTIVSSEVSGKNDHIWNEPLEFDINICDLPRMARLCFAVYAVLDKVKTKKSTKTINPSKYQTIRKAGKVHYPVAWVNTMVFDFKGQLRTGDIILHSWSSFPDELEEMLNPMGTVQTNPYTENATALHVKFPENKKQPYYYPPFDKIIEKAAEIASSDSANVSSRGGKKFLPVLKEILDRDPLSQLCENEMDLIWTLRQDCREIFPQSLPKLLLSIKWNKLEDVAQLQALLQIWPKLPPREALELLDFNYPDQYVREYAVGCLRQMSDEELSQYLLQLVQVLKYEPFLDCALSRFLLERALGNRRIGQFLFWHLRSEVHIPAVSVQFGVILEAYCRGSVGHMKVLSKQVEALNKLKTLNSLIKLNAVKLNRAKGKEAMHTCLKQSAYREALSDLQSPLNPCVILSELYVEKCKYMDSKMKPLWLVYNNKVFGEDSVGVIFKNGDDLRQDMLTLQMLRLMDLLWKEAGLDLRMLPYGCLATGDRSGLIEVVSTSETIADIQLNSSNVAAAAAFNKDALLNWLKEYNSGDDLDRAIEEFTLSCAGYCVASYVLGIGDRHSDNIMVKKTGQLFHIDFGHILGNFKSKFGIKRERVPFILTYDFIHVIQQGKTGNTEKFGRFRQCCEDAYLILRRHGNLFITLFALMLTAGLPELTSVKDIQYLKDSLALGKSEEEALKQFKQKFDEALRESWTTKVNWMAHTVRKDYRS
3.57

Now consider Cc1cc(NCc2ccccc2C)c2nc(N3CCOCC3)cc(=O)n2c1 .
2.04

Now consider Cc1cc(Nc2ccc(C)c(C)c2)c2nc(N3CCOCC3)cc(=O)n2c1 .
4.15

Now consider Cc1ccccc1Oc1cccc2c(=O)cc(N3CCOCC3)[nH]c12 .
2.11

Now consider Cc1cc(NCc2ccccc2)c2nc(N3CCOCC3)cc(=O)n2c1 .
2.20

Now consider O=c1cc(N2CCOCC2)oc2ccccc12 .
3.88
